Test system: Mus musculus
Test: Skeletal muscle relaxant activity in Swiss albino mouse assessed as number of falls form rotarod at 5 mg/kg, ip after 30 mins by rotarod method relative to Diazepam
Format: functional
Design: scale not given: the % may be the effect or the level left
Details: route intraperitoneal
For each of the compounds below, state its Activity.
All answers are understood in %, so give the number only.

Query :: For Mus musculus, provide Activity of CCc1nnc2n(-c3ccc(Cl)cc3)c(=O)c3c4c(sc3n12)CCCC4 please.
Result :: 105.49

Query :: For Mus musculus, provide Activity of Cc1nnc2n(-c3ccc(Cl)cc3)c(=O)c3c4c(sc3n12)CCCC4 please.
Result :: 102.75

Query :: For Mus musculus, provide Activity of O=c1c2c3c(sc2n2c(S)nnc2n1-c1ccc(Cl)cc1)CCCC3 please.
Result :: 109.62

Query :: For Mus musculus, provide Activity of Nc1nnc2n(-c3ccc(Cl)cc3)c(=O)c3c4c(sc3n12)CCCC4 please.
Result :: 107.52

Query :: For Mus musculus, provide Activity of CCCc1nnc2n(-c3ccc(Cl)cc3)c(=O)c3c4c(sc3n12)CCCC4 please.
Result :: 116.62
